- test summary: Toxicity liver stage against HepG2, at 10uM
- Assay type: cell-based
- Parameters: test concentration 10 uM, cell line HepG2-A16-CD81EGFP
- measurement parameters: human, HepG2-A16-CD81EGFP cells; read-out: INHIBITION
Documented cytotoxicity at 10 µM across a set of molecules
Show the value, then the unit it is measured in.

Please review the entries below; each comes with its answer.
Cc1cc(C2CCCN2C(=O)COc2ccc(CC#N)cc2)no1 (stereo unspecified) : -38.9%
Cc1cc(N2CCOC(c3ccc(N(C)C)cn3)C2)nc(N)n1 (stereo unspecified) : 5.62%
O=C(O)CN1CCC(c2ccccc2)C1 (stereo unspecified) : 1.67%
c1cnc(N2C[C@@H]3COC[C@]3(COCC3CCCC3)C2)nc1 : -8.85%
O=C(NCCc1c[nH]c2ccccc12)C1CCC(Cn2cnnn2)CC1 (stereo unspecified) : -12.7%

--- query ---
-- ask Assign cytotoxicity at 10 µM to the following record: CNc1oc(-c2ccc(OC)c(S(=O)(=O)N(C)C)c2)nc1C#N
-- reply 1.71%

* * *

- test summary: Toxicity liver stage against HepG2, at 10uM
- Format: cell-based
- Set-up: test concentration 10 uM, cell line HepG2-A16-CD81EGFP
- measurement parameters: human, HepG2-A16-CD81EGFP cells; read-out: INHIBITION
quantity: cytotoxicity at 10 µM (%)
Kindly answer with a numeric value in %, unit omitted.

Please review the entries below; each comes with its answer.
CS(=O)(=O)N1CCC(Cc2cnc(Br)cn2)C1 (stereo unspecified) : 14.5
COc1ccc(C2CCCCCN2S(C)(=O)=O)cc1 (stereo unspecified) : 3.86
CCC(CC)N1CCC(c2[nH]ncc2S(C)(=O)=O)C1 (stereo unspecified) : -3.51

-- ask Assign cytotoxicity at 10 µM to the following record: Cc1nnc(SC2CCc3ccccc3NC2=O)o1 (stereo unspecified)
-- reply 1.35

-- ask Assign cytotoxicity at 10 µM to the following record: COc1ccc2c(c1)NC(=O)C2OC(=O)CCc1ccc(F)cc1 (stereo unspecified)
-- reply -4.71

-- ask Assign cytotoxicity at 10 µM to the following record: Cc1cc(CN[C@H](C(N)=O)[C@@H](C)O)c(C)s1
-- reply 9.5

* * *

- test summary: Toxicity liver stage against HepG2, at 10uM
- Format: cell-based
- Parameters: test concentration 10 uM, cell line HepG2-A16-CD81EGFP
- measurement parameters: human, HepG2-A16-CD81EGFP cells; read-out: INHIBITION
quantity: cytotoxicity at 10 µM (%)
Kindly answer with a numeric value in %, unit omitted.

Cc1cc(C(=O)NC2CCN(C(=O)Nc3cccnc3)CC2)c(C)o1 : 6.62
CC(C)(C)c1ccn(C2(C(=O)O)CCN(c3ccncc3F)CC2)n1 : -0.423
Cc1c(Cl)c(C(=O)NN2CCOCC2)nn1C : 7.47
CC(C)CCC(=O)N1CCC2(CC1)OCCO2 : -0.457

-- ask Assign cytotoxicity at 10 µM to the following record: COCC(=O)N1Cc2nccn2CC(CN(C)Cc2cccnc2)C1 (stereo not drawn)
-- reply -76.2

-- ask Assign cytotoxicity at 10 µM to the following record: CC(=O)c1c(C)nn(CC(=O)N2Cc3cnc(CC(C)C)nc3C2)c1C
-- reply 3.75

-- ask Assign cytotoxicity at 10 µM to the following record: CCN1C(=O)C[C@@H]2[C@@H]1CCN2S(=O)(=O)c1ccccc1
-- reply 2.55

-- ask Assign cytotoxicity at 10 µM to the following record: COc1ccc(OCCCNCCn2cccn2)cc1
-- reply -20
